Item-by-item account of interaction score
- assaySystem: T1, O5-AA
- T1 chain: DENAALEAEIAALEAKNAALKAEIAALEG
- protocolSummary: two-hybrid library CCmax;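 also: natural log of median RNA to DNA barcode read ratio; higher means stronger binding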
- conditionParameters: mean of both orientations
reportedMetric: interaction score

# binder, reportedMetric, measValue
measured = [
    ("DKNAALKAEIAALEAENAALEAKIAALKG [4H3606-AA]", "interaction score", 2.23),
    ("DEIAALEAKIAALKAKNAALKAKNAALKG [4H384-AA]", "interaction score", -0.778),
    ("DENAALEAEIAALEAENAALEAKIAALKG [O14-AA]", "interaction score", 1.3),
]

Hey, just so you know, these numbers are from paper PMC10397247.
